This collection of values is drawn from ChEMBL document CHEMBL3991601.

Peroxisomal acyl-coenzyme A oxidase 1 (Homo sapiens) data, read-out Kd; further: in the data inactive means no Kd found up to 30 µM
Sequence (Q15067 whole entry): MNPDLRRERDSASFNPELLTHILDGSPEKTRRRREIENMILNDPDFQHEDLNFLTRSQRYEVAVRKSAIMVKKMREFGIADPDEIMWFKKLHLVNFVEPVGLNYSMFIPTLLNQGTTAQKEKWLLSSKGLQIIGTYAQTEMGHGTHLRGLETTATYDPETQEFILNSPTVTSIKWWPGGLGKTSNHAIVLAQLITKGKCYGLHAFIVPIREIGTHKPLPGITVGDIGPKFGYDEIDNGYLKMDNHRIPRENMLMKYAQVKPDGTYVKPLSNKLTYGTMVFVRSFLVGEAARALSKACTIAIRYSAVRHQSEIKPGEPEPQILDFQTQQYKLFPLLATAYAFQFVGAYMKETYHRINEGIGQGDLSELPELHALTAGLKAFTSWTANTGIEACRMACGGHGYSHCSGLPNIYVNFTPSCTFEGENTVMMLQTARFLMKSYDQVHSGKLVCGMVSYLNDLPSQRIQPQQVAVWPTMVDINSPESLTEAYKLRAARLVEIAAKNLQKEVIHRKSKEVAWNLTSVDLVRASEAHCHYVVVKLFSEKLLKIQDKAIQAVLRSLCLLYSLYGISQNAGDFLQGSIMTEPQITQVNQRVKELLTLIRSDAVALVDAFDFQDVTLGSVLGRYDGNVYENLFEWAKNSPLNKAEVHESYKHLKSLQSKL
Calls of active or inactive are those of the source.

Please review the entries below; each comes with its answer.
- CC(C)c1cc(CNc2nc(Nc3cc(C4CC4)[nH]n3)cc(N3CCN(C)CC3)n2)on1: > 30 µM (inactive)
- Cc1cccc(-c2nn3c(c2-c2ccnc4ccc(C(N)=O)cc24)CCC3)n1: > 30 µM (inactive)

Which Kd value is on record for N#CC[C@H](C1CCCC1)n1cc(-c2ncnc3[nH]ccc23)cn1 ?
> 30 µM (inactive)

###

Dual specificity mitogen-activated protein kinase kinase 6 (Homo sapiens, UniProt P52564) data, read-out Kd; further: in the data inactive means no Kd found up to 30 µM
Sequence (P52564 whole entry): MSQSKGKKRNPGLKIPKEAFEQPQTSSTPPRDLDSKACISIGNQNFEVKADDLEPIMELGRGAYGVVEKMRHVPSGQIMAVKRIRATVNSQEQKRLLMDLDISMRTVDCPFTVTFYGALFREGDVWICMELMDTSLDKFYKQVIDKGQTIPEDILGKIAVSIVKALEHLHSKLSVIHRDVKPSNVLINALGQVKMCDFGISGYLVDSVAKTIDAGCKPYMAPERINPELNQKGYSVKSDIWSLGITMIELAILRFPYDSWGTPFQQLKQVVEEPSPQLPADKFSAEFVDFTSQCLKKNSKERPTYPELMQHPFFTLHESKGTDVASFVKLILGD
Activity calls are given as the source filed them.

Please review the entries below; each comes with its answer.
- COc1cc2ncnc(Oc3cccc(NC(=O)Nc4cc(C(C)(C)C(F)(F)F)on4)c3)c2cc1OC: > 30 µM (inactive)
- FC(F)(F)c1ccc(/C=C/c2nc(COc3ccc(CCCCn4ccnn4)cc3)co2)cc1: > 30 µM (inactive)

Below: the item to evaluate.
Give the reported Kd for CO[C@H]1C[C@@H]2CC[C@@H](C)[C@@](O)(O2)C(=O)C(=O)N2CCCC[C@H]2C(=O)O[C@H]([C@H](C)C[C@@H]2CC[C@@H](OP(C)(C)=O)[C@H](OC)C2)CC(=O)[C@H](C)/C=C(\C)[C@@H](O)[C@@H](OC)C(=O)[C@H](C)C[C@H](C)/C=C/C=C/C=C/1C (system: Dual specificity mitogen-activated protein kinase kinase 6 (Homo sapiens, UniProt P52564)). Further: in the data inactive means no Kd found up to 30 µM.
> 30 µM (inactive)

###

# Target or system: Mitogen-activated protein kinase kinase kinase 3 (Homo sapiens); further: in the data inactive means no Kd found up to 30 µM
# Sequence (Q99759 whole entry): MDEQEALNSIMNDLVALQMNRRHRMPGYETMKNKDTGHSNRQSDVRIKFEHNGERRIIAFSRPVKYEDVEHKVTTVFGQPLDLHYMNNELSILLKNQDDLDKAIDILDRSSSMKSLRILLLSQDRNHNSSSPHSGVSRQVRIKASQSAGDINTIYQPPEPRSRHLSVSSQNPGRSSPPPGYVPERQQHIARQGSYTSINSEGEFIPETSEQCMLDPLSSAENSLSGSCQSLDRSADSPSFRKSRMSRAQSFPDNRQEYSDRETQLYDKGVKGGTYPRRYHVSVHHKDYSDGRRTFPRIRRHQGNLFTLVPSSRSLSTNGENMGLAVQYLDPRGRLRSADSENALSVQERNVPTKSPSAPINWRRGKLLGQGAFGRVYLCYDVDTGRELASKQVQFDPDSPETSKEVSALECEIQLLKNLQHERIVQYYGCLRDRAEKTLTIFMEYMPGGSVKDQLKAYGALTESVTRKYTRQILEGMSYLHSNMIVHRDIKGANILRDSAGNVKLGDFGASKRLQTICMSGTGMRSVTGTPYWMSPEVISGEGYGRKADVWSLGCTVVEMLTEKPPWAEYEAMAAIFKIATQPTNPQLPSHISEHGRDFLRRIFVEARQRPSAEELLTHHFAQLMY
Active and inactive are the calls of the source.
// one of active, inactive, no free text

Reference set (4 entries):
* C[C@@H](NC(=O)c1ncnc(N)c1Cl)c1ncc(C(=O)Nc2cc(C(F)(F)F)c(Cl)cn2)s1 [TOVORAFENIB] | inactive
* CC(=O)NCC(=O)N1[C@@H]2CC[C@H]1c1ccc(Nc3ncc(C(F)(F)F)c(NC4CCC4)n3)cc12 [PF-03814735] | active
* COc1ccc(S(=O)(=O)N(C(C)=O)c2ccccc2/C=C/c2cc[n+]([O-])cc2)cc1 [HMN-214] | inactive
* Cc1cc(Nc2ncc(Cl)c(Nc3ccccc3S(=O)(=O)C(C)C)n2)c(OC(C)C)cc1C1CCNCC1 [CERITINIB] | inactive

For Cc1csc(-c2nnc(Nc3ccc(Oc4ncccc4-c4ccnc(N)n4)cc3)c3ccccc23)c1 [AMG-900] , what call appears in the results of this test?
active

###

Please provide measured Kd for the entries that follow.
# Target or system: Mitogen-activated protein kinase 15 (Homo sapiens, UniProt Q8TD08); further: in the data inactive means no Kd found up to 30 µM
# Sequence (Q8TD08 whole entry): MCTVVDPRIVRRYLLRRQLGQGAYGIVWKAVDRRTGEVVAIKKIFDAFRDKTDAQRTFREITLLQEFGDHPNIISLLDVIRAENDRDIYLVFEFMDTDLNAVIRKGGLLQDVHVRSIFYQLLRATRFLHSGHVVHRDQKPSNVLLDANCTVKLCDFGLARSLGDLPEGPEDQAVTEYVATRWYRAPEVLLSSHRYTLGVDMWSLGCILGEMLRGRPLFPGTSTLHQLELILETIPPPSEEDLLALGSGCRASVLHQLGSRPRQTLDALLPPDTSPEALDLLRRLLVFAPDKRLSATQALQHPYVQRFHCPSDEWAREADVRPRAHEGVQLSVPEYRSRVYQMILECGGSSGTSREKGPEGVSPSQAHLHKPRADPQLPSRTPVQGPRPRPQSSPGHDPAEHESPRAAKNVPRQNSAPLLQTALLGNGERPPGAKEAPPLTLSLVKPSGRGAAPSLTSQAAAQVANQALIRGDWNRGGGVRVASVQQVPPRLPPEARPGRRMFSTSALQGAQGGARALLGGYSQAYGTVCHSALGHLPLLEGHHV
Activity calls are given as the source filed them.

Please review the entries below; each comes with its answer.
• N#CC1(c2ccc(NC(=O)c3cccnc3NCc3ccncc3)cc2)CCCC1 = > 30 µM (inactive)
• CO[C@H]1C[C@@H]2CC[C@@H](C)[C@@](O)(O2)C(=O)C(=O)N2CCCC[C@H]2C(=O)O[C@H]([C@H](C)C[C@@H]2CC[C@@H](OC(=O)C(C)(CO)CO)[C@H](OC)C2)CC(=O)[C@H](C)/C=C(\C)[C@@H](O)[C@@H](OC)C(=O)[C@H](C)C[C@H](C)/C=C/C=C/C=C/1C = > 30 µM (inactive)
• NC(=O)c1c(OCc2c(F)cc(Br)cc2F)nsc1NC(=O)NCCCCN1CCCC1 = > 30 µM (inactive)

Could I get Kd for every one of these entries?
1. C[C@@H](NC(=O)c1ncnc(N)c1Cl)c1ncc(C(=O)Nc2cc(C(F)(F)F)c(Cl)cn2)s1
2. COc1ccc(S(=O)(=O)N(C(C)=O)c2ccccc2/C=C/c2cc[n+]([O-])cc2)cc1
3. Cc1nc(NC(=O)N2CCC[C@H]2C(N)=O)sc1-c1ccnc(C(C)(C)C(F)(F)F)c1
4. CN1CCN(CCOc2cc(OC3CCOCC3)c3c(Nc4c(Cl)ccc5c4OCO5)ncnc3c2)CC1

1: > 30 µM (inactive); 2: > 30 µM (inactive); 3: > 30 µM (inactive); 4: > 30 µM (inactive)

###

# Target or system: Tyrosine-protein kinase ABL2 (Homo sapiens, UniProt P42684); further: in the data inactive means no Kd found up to 30 µM
# Sequence (P42684 whole entry): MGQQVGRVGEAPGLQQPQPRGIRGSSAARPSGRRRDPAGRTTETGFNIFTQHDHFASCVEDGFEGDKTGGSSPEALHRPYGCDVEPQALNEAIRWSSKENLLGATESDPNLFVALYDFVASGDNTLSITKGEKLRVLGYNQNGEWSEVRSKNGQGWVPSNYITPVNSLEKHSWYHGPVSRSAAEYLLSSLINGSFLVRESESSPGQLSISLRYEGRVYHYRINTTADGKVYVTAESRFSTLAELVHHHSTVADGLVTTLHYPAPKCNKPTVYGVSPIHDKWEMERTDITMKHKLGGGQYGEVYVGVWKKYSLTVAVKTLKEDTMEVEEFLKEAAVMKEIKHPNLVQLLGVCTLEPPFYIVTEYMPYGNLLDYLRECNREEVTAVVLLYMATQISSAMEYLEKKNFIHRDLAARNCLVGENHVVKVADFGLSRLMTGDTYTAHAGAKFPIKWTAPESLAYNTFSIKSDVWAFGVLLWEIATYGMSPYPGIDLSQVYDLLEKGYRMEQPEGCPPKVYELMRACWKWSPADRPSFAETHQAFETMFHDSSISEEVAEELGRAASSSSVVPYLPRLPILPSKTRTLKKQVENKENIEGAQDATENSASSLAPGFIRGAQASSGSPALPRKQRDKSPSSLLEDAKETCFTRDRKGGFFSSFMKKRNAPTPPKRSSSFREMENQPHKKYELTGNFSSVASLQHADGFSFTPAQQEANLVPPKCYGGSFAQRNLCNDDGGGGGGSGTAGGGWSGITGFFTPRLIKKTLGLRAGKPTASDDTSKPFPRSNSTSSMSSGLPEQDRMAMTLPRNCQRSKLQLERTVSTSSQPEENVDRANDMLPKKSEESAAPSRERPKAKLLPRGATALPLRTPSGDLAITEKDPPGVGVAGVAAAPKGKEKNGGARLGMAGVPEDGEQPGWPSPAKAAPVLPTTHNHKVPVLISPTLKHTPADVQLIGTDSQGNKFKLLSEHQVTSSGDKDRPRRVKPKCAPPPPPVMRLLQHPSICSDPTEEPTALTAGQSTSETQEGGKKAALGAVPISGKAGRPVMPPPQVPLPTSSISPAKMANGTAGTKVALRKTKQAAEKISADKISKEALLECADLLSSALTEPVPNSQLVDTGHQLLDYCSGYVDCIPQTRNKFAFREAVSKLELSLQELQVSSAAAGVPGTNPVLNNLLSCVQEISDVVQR
Calls of active or inactive are those of the source.
// one of TRUE (active), FALSE (inactive), no free text

Reference set (3 entries):
• FC(F)(F)c1ccc(/C=C/c2nc(COc3ccc(CCCCn4ccnn4)cc3)co2)cc1 = FALSE
• C#Cc1cccc(Nc2ncnc3cc(OC)c(OCCCCCCC(=O)NO)cc23)c1 = FALSE
• COc1c(OCCCN2CCOCC2)ccc2c1N=C(NC(=O)c1cnc(N)nc1)N1CCN=C21 = FALSE

Then this compound:
For CC(C)c1cc(CNc2nc(Nc3cc(C4CC4)[nH]n3)cc(N3CCN(C)CC3)n2)on1 , what call appears in the results of this test?
TRUE

###

# Target or system: Breakpoint cluster region protein (Homo sapiens); further: in the data inactive means no Kd found up to 30 µM
# Sequence (P11274 whole entry): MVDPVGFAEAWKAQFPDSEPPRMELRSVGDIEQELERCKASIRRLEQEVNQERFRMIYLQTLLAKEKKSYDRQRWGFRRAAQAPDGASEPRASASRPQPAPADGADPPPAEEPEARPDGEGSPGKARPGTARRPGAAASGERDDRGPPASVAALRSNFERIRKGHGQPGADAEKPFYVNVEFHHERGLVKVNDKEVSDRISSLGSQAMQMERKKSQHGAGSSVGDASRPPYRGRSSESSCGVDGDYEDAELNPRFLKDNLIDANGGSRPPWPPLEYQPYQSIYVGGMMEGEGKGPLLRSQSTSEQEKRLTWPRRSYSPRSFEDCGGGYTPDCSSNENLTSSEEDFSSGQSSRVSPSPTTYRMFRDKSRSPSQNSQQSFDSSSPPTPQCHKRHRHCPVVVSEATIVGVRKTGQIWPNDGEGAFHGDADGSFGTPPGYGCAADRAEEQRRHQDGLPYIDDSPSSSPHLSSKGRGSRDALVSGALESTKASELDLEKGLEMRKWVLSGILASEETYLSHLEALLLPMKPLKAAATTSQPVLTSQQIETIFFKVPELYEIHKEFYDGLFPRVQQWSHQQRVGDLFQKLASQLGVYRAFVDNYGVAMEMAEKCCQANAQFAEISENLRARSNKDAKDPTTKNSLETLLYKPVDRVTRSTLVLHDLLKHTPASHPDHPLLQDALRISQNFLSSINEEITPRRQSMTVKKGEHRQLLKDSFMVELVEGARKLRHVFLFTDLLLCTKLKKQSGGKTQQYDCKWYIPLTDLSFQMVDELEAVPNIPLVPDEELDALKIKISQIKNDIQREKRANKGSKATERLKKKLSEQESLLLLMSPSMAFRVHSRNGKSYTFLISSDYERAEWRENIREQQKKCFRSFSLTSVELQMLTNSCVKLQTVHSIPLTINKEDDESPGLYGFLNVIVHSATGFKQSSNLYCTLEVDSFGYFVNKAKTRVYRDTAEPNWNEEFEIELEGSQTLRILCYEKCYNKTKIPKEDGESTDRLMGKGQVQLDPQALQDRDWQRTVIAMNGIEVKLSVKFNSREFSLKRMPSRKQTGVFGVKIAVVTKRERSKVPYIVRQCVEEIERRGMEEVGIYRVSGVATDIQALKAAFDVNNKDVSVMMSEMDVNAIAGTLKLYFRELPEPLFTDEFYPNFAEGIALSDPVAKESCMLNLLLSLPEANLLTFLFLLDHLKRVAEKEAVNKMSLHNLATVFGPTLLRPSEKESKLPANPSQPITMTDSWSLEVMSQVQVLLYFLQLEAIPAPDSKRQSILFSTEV
Calls of active or inactive are those of the source.
// one of T for active, F for inactive, no free text

Reference set (5 entries):
* CC(=O)NCC(=O)N1[C@@H]2CC[C@H]1c1ccc(Nc3ncc(C(F)(F)F)c(NC4CCC4)n3)cc12 [PF-03814735] | T
* CCS(=O)(=O)c1cccc(-c2cc(C(=O)NC3CCN(C)CC3)c(C)c3[nH]c4ncc(C)cc4c23)c1 [TAK-901] | T
* O=C(Nc1nc2cccc(-c3ccc(CN4CCS(=O)(=O)CC4)cc3)n2n1)C1CC1 [FILGOTINIB] | F
* Cc1cc(C(=O)NOCCO)c(Nc2ccc(I)cc2F)n(C)c1=O [AZD-8330] | F
* COCC(=O)NC/C=C/c1ccc2ncnc(Nc3ccc(Oc4ccc(C)nc4)c(C)c3)c2c1 [CP-724714] | F

For CCCCCCCCCCCCCCCCCCOP(=O)([O-])OC1CC[N+](C)(C)CC1 [PERIFOSINE] , what call appears in the results of this test?
F

For O=C(Cc1ccc(-c2ccc(OCCN3CCOCC3)cc2)cn1)NCc1ccccc1 [TIRBANIBULIN] , what call appears in the results of this test?
F
